- Protocol details: solubility in water of trimetazidine dihydrochloride
- Format: physicochemical
- Experimental setup: read-out: solubilité du dichlorhydrate dans l'eau
Recorded metric: solubility

INSERT INTO assay_data (compound, endpoint_value) VALUES
  ('COc1ccc(CN2CCNCC2)c(OC)c1OC [dichlorhydrate de trimétazidine, 1-(2,3,4-triméthoxybenzyl)pipérazine]', '> 1000 mg/mL');
